Lab note: pIC50 readings collected with HSP90α (Homo sapiens) for the following molecules.
pIC50: −log10 of the molar value.
Test Readout: pIC50

Some entries whose results are on file:
>  <Molecule>
COc1c(C)cnc(CN2c3nc(N)ncc3N(CC(C)(C)N(C)C)C(=O)[C@H]2C)c1C [Example 11.12]

>  <pIC50>
4.80

$$$$
>  <Molecule>
COc1c(C)cnc(CN2CC(=O)N(C)c3cnc(N)nc32)c1C [Example 4.3]

>  <pIC50>
6.48

$$$$
>  <Molecule>
COc1c(C)cnc(CN2c3nc(N)ncc3NC[C@@H]2C)c1C [Example 5]

>  <pIC50>
4.09

$$$$
>  <Molecule>
COCCCN1C(=O)[C@@H](C)N(Cc2ncc(C)c(OC)c2C)c2nc(N)ncc21 [Example 10]

>  <pIC50>
5.92

$$$$
>  <Molecule>
COc1c(C)cnc(CN2c3nc(N)ncc3N(C)C(=O)[C@@H]2C)c1C [Example 3]

>  <pIC50>
4.73

$$$$

P = COc1c(C)cnc(CN2c3nc(N)ncc3N(CCN3CCNC3=O)C(=O)[C@H]2C)c1C [Example 11.20]
Q = COc1c(C)cnc(CN2c3nc(N)ncc3N(CCN3CCCC3)C(=O)[C@H]2C)c1C [Example 11.11]
Query: Field: entry with larger pIC50 (options P / Q ). To answer, give the label that identifies your chosen option.
Reply: P

I = COc1c(C)cnc(CN2c3nc(N)ncc3NC(=O)[C@H]2CC(=O)O)c1C [Example 12]
II = COc1c(C)cnc(CN2c3nc(N)ncc3N(C)C(=O)[C@H]2C)c1C [Example 4.2]
Query: // returns I or II , whichever has the lower pIC50 To answer, give the label that identifies your chosen option.
Reply: I
(I: 5.13, II: 6.10)

I = COc1c(C)cnc(CN2c3nc(N)ncc3N(CCN3CCNCC3)C(=O)[C@H]2C)c1C [Example 11.3]
II = CCCN1C(=O)CN(Cc2ncc(C)c(OC)c2C)c2nc(N)ncc21 [Example 11.19]
Query: Field: entry with larger pIC50 (options I / II ). To answer, give the label that identifies your chosen option.
Reply: II
